Tested on: Danio rerio Tg(wt1b:EGFP) embryo, pronephros
test-summary: pronephric angle neck segment to proximal convoluted tubule (mean of left and right), fold change vs DMSO control; higher = larger pronephric angle
protocol-conditions: 25 µM; exposure: 24-48 hpf
Where a name gives a salt, the structure may show the parent alone.
observed-property: pronephric angle neck segment
Output spec: single numeric token, no unit.

Below, each entry is followed by its recorded pronephric angle neck segment result.
// query Give the reported pronephric angle neck segment for COc1ccc(CN2CCN(C(c3ccc(F)cc3)c3ccc(F)cc3)CC2)c(OC)c1OC [Lomerizine hydrochloride] (system: Danio rerio Tg(wt1b:EGFP) embryo, pronephros).
// result 0.99

// query Fill in the recorded pronephric angle neck segment for this compound, with Danio rerio Tg(wt1b:EGFP) embryo, pronephros as test system: Cc1cc(N)c2ccccc2[n+]1CCCCCCCCCC[n+]1c(C)cc(N)c2ccccc21 [Dequalinium dichloride]
// result 0.986

// query Lookup: pronephric angle neck segment / Danio rerio Tg(wt1b:EGFP) embryo, pronephros / NCCNCCNCCNCCN [Tetraethylenepentamine pentahydrochloride]
// result 1.02

// query Reported pronephric angle neck segment for Danio rerio Tg(wt1b:EGFP) embryo, pronephros, given CN(C)CCC=C1c2ccccc2COc2ccccc21 [Doxepin hydrochloride] ?
// result 1.01

// query Record lookup: for Danio rerio Tg(wt1b:EGFP) embryo, pronephros, what pronephric angle neck segment belongs to CC(Cc1cccc(C(F)(F)F)c1)NCCOC(=O)c1ccccc1 (centres undefined) [Benfluorex] ?
// result 1.04

Continuing:
// query Can you look up pronephric angle neck segment on Danio rerio Tg(wt1b:EGFP) embryo, pronephros for Nc1nc(NC2CC2)c2ncn([C@H]3C=C[C@@H](CO)C3)c2n1 [Abacavir Sulfate] ?
// result 1.04

// query Request body: readout pronephric angle neck segment, system Danio rerio Tg(wt1b:EGFP) embryo, pronephros, query CC(=O)CC(c1ccc([N+](=O)[O-])cc1)c1c(O)c2ccccc2oc1=O (centres undefined) [Acenocoumarol] . Return the value.
// result 1.07

// query Please provide the recorded pronephric angle neck segment for Cc1ncc(CO)c(CO)c1O [Pyridoxine hydrochloride] , tested on Danio rerio Tg(wt1b:EGFP) embryo, pronephros.
// result 1.06

// query Give pronephric angle neck segment (Danio rerio Tg(wt1b:EGFP) embryo, pronephros) of the following compound: C=C(CC)C(=O)c1ccc(OCC(=O)O)c(Cl)c1Cl [Ethacrynic acid]
// result 0.918
